molecular target: Cannabinoid receptor 2 (Homo sapiens)
Sequence (P34972 whole entry): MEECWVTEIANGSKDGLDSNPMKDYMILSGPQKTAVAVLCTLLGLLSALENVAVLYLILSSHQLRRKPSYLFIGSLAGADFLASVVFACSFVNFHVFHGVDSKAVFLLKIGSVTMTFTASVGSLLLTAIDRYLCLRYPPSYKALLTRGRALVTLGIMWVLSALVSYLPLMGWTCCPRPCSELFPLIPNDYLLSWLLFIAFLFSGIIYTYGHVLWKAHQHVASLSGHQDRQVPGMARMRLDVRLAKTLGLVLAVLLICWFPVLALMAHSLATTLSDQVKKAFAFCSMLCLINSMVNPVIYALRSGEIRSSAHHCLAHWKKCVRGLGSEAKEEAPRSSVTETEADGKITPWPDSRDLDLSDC
pKi: −log10 of the molar value.
Quantity: pKi

Query smiles	Result
Cc1ccc(Cn2cc(C(=O)N[C@@H]3C[C@@H]4C[C@H]([C@H]3C)C4(C)C)cc2-c2ccc(Cl)c(C)c2)cc1	< 5.30
Cc1ccc(Cn2cc(C(=O)NCC34CC5CC(CC(C5)C3)C4)cc2-c2ccc(Cl)c(C)c2)cc1	< 5.30
Cc1ccc(Cn2cc(C(=O)NN3CCCC3)cc2-c2ccc(Cl)c(C)c2)cc1	< 5.30
Cc1ccc(Cn2cc(CN3CCN(c4ccc(Cl)cc4)CC3)cc2-c2ccc(Cl)c(C)c2)cc1	< 5.30
Cc1ccc(Cn2cc(C(=O)N[C@@H]3C(C)(C)C4CC[C@@]3(C)C4)cc2-c2ccc(Cl)c(C)c2)cc1	8.24
Cc1ccc(Cn2cc(C(=O)N[C@@H](C)C3CCCCC3)cc2-c2ccc(Cl)c(C)c2)cc1	6.31

----------
molecular target: Cannabinoid receptor 2 (Homo sapiens)
# strict inequality: Ki < 200 nM yields rule met, everything else yields rule not met

Query smiles	Assigned category
Cc1ccc(Cn2cc(C(=O)N[C@H]3C[C@@H](C)CC[C@@H]3C(C)C)cc2-c2ccc(Cl)c(C)c2)cc1	rule not met
Cc1ccc(Cn2cc(C(=O)N[C@@H]3CC4CC[C@@]3(C)C4(C)C)cc2-c2ccc(Cl)c(C)c2)cc1	rule met
Cc1ccc(Cn2cc(C(=O)N3CCCCC3)cc2-c2ccc(Cl)c(C)c2)cc1	rule met
Cc1ccc(Cn2cc(C(=O)N[C@H](C)C3CCCCC3)cc2-c2ccc(Cl)c(C)c2)cc1	rule not met
Cc1ccc(Cn2cc(C(=O)N3CCN(c4ccccc4Cl)CC3)cc2-c2ccc(Cl)c(C)c2)cc1	rule not met
Cc1ccc(Cn2nc(C(=O)N[C@@H]3CC4CC[C@@]3(C)C4(C)C)cc2-c2ccc(Cl)c(C)c2)cc1	rule met
Cc1ccc(Cn2cc(CN[C@@H]3C(C)(C)C4CC[C@@]3(C)C4)cc2-c2ccc(Cl)c(C)c2)cc1	rule not met
Cc1ccc(Cn2cc(C(=O)NN3CCCCCC3)cc2-c2ccc(Cl)c(C)c2)cc1	rule not met
Cc1ccc(Cn2cc(C(=O)NC3CCCCC3)cc2-c2ccc(Cl)c(C)c2)cc1	rule not met

----------
molecular target: Cannabinoid receptor 1 (Homo sapiens); experiment: Displacement of [3H]-CP55940 from human CB1 receptor transfected in HEK293EBNA cell membranes after 90 mins by liquid scintillation counting analysis; set-up: species or system HEK293-EBNA
Sequence (P21554 whole entry): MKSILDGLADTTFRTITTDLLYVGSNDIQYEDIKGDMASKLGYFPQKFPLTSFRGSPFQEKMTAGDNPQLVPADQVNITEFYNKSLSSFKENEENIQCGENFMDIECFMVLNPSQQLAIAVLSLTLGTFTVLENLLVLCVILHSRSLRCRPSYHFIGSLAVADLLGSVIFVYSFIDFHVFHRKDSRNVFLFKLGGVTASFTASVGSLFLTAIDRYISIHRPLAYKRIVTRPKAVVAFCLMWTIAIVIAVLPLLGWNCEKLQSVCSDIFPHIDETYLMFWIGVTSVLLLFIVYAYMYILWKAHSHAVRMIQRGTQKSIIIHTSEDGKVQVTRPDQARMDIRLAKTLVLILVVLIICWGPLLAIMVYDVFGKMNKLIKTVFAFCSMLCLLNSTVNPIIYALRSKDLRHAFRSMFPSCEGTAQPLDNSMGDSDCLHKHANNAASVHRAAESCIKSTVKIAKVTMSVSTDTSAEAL
pKi: −log10 of the molar value.

Query smiles	Tgt	pKi
Cc1ccc(Cn2cc(CN3CCN(c4ccc(Cl)cc4)CC3)cc2-c2ccc(Cl)c(C)c2)cc1	Cannabinoid receptor 1 (Homo sapiens)	< 5.30
Cc1ccc(Cn2cc(C(=O)N[C@@H]3C(C)(C)C4CC[C@@]3(C)C4)cc2-c2ccc(Cl)c(C)c2)cc1	Cannabinoid receptor 1 (Homo sapiens)	5.83
Cc1ccc(Cn2cc(C(=O)NN3CCCCCC3)cc2-c2ccc(Cl)c(C)c2)cc1	Cannabinoid receptor 1 (Homo sapiens)	< 5.30
Cc1ccc(Cn2cc(C(=O)N3CCCCC3)cc2-c2ccc(Cl)c(C)c2)cc1	Cannabinoid receptor 1 (Homo sapiens)	5.51
Cc1ccc(Cn2cc(C(=O)NN3CCCCC3)cc2-c2ccc(Cl)c(C)c2)cc1	Cannabinoid receptor 1 (Homo sapiens)	< 5.30
Cc1ccc(Cn2cc(C(=O)N[C@@H]3CC4CC[C@@]3(C)C4(C)C)cc2-c2ccc(Cl)c(C)c2)cc1	Cannabinoid receptor 1 (Homo sapiens)	6.43
Cc1ccc(Cn2cc(C(=O)NC[C@@H]3CCC4C[C@@H]3C4(C)C)cc2-c2ccc(Cl)c(C)c2)cc1	Cannabinoid receptor 1 (Homo sapiens)	< 5.30
Cc1ccc(Cn2cc(C(=O)N[C@H](C)C3CCCCC3)cc2-c2ccc(Cl)c(C)c2)cc1	Cannabinoid receptor 1 (Homo sapiens)	< 5.30
Cc1ccc(Cn2cc(C(=O)N[C@H]3C[C@@H](C)CC[C@@H]3C(C)C)cc2-c2ccc(Cl)c(C)c2)cc1	Cannabinoid receptor 1 (Homo sapiens)	< 5.30
Cc1ccc(Cn2cc(C(=O)Nc3cccc4ccccc34)cc2-c2ccc(Cl)c(C)c2)cc1	Cannabinoid receptor 1 (Homo sapiens)	< 5.30
Cc1ccc(Cn2cc(CN3CCN(c4ccc(Cl)c(Cl)c4)CC3)cc2-c2ccc(Cl)c(C)c2)cc1	Cannabinoid receptor 1 (Homo sapiens)	< 5.30
Cc1ccc(Cn2cc(C(=O)NCC34CC5CC(CC(C5)C3)C4)cc2-c2ccc(Cl)c(C)c2)cc1	Cannabinoid receptor 1 (Homo sapiens)	< 5.30
Cc1ccc(Cn2cc(C(=O)NC3CCCCC3)cc2-c2ccc(Cl)c(C)c2)cc1	Cannabinoid receptor 1 (Homo sapiens)	< 5.30
Cc1ccc(Cn2cc(C(=O)NC34CC5CC(CC(C5)C3)C4)cc2-c2ccc(Cl)c(C)c2)cc1	Cannabinoid receptor 1 (Homo sapiens)	< 5.30
Cc1ccc(Cn2cc(C(=O)NN3CCCC3)cc2-c2ccc(Cl)c(C)c2)cc1	Cannabinoid receptor 1 (Homo sapiens)	< 5.30
